The measurements presented in this section are drawn from patent US20200377609A1.

target: CAR-2; assay: flow cytometry; clonal supernatant on control CAR-2 T cells, FITC goat anti-rabbit F(ab')2 detection
QUANTITY: CAR+ (gate frequency)
Give your answer as a number; write no unit.

Clone 80-7 (antibody, V domains shown) VH: QEQLEESGGDLVKPEGSLTLTCTASGFSFSSAYWICWVRQVPGKGLEWIACIYTGSGGRSHYASWAKGRFTISKTSSTTVTLQMTSLTAADTATYFCARDPYILSAGPDNVLWGPGTLVTVSS VL: ALVMTQTPSPVSAAVGGTVTINCQASQSIGSDLGWFQQKPGQPPKLLIYWASTLASGVPSRFEGSGSGTQFTLTISDLECDDAATYYCAGYESLSNDGNAFGGGTEVVVK	0.22
Clone 9-9 (antibody, V domains shown) VH: QQQLEESGGGLVKPGGTLTLTCTASGFSFSSGQRMCWVRQAPGKGLELIACIYTSAGGSTHYASWATGRFTISKTSSTTVTLQMTSLTAADTATYFCARDPYLLSAGPDNNLWGPGTLVAVSS VL: ALVMTQTPSPVSAAVGGTVTINCQASQSIGSDFTWWQQKPGQPPKLLIYWASTLASGVSSRFKGSGSGTQFTLTISDLECDDAATYYCAGYVSYSDDGNAFGGGTEVVVK	0.067
Clone 137-2 (antibody, V domains shown) VH: QEQLVESGGGLVQPEGSLTLTCTASGFSFSLSNWICWVRQAPGKGLEWVACIYVSVSGNTRYASWAKGRFTISETSSTTVTLQMTGLTAADTATYFCARDPFSLVSVDRSLWGPGTLVTVSS VL: ALVMTQTPSPVSAAVGGTVTINCQASQSIGSDLSWFQQKPGQPPKLLMYWASSLASGVPSRFKGSGSGTQFTLTISDLECDDAATYYCAGYVNYNNDDAAFGGGTEVVVK	0.11
Clone 18-4 (antibody, V domains shown) VH: QERLVESGGGLVQPEGSLTLTCTASGLTLSNYWLCWVRQAPGKGLEWIACIYTGNYGSAYYANWVKGRFTISKASSTTVTLQMTSLTAADTATYFCARDPYTLTNVDVLWGPGTLVTVSS VL: ALVMTQTPSPVSAAVGGTVTINCQASQSIGSDLAWYQQRPGQPPKLLIYWASTLASGVPSRFSGSGSGTQFTLTISDLECDDAATYYCTGYISYNDDNAAFGGGTEVVVK	0.09
Clone 63-1 (antibody, V domains shown) VH: QEQLEESGGDLVKPGASLTLTCTASGFSFSSGYWICWVRQAPGKGLEWIACIYTRSGGSTHYASWAKGRFTTSKTSSTTVTLQMTSLTAADMATYFCARDPYVLSAGPDNVLWGPGTLVTVSS VL: ALVMTQTPSPVSAAVGGTVTINCQASESIGSDLGWYQQKPGQPPKFLIYWASTLVSGVPSRFEGSGSGTQFTLTISDLECDDAATYYCAGYESLSNDGNAFGGGTEVVVK	0.1

// field: CAR+ (gate frequency); key: Clone 9-1 (antibody, V domains shown) VH: QQQLEESGGGLVKPGGTLTLTCTASGFSFSSGQWMCWVRQAPGKGLELIACIYTSAGGSTHYASWATGRFTISKTSSTTVTLQMTSLTAADTATYFCARDPYLLSAGPDNNLWGPGTLVAVSS VL: ALVMTQTPSPVSAAVGGTVTINCQASQSIGSDFTWWQQKPGQPPKLLIYWASTLASGVSSRFKGSGSGTQFTLTISDLECDDAATYYCAGYVSYSDDGNAFGGGTEVVVK ; value = 0.18
